# Tested on: H9
# method.notes: Minimum inhibitory concentration required to prevent HIV infection was determined in H9 human T-lymphoid cell culture
# Format: functional
Where a SMILES comes first, the peptide text is derived from it.
quantity.kind: log10(MIC) (log10 of the value in µM)
A difference of one corresponds to tenfold MIC; all values are log10 with MIC in µM.

Quick note, log10(MIC) for CC(C)CC(NC(=O)[C@H](Cc1ccccc1)C[C@H](O)[C@H](Cc1ccccc1)NC(=O)OC(C)(C)C)C(N)=O (stereo not given in full) landed at 0.78

Data point: CC(C)C[C@H](NC(=O)[C@H](Cc1ccccc1)C[C@H](O)[C@H](Cc1ccccc1)NC(=O)[C@H](Cc1ccccc1)NC(=O)[C@H](Cc1ccccc1)NC(=O)OC(C)(C)C)C(=O)N[C@@H](Cc1ccccc1)C(N)=O (HELM PEPTIDE1{[CC(C)(C)OC(=O)[*:2]].F.F.[O=C([C@H](Cc1ccccc1)C[C@H](O)[C@H](Cc1ccccc1)N[*:1])[*:2]].L.F.[am]}$$$$V2.0) ; log10(MIC) = 1.70

Looking up CC(C)C[C@H](NC(=O)[C@H](Cc1ccccc1)C[C@H](O)[C@H](Cc1ccccc1)NC(=O)OC(C)(C)C)C(=O)N[C@@H](Cc1ccccc1)C(N)=O , I found its log10(MIC) recorded as 0.78

Value of log10(MIC) reported for the compound CC(C)CC(NC(=O)[C@H](Cc1ccccc1)C[C@H](O)[C@H](Cc1ccccc1)NC(=O)OC(C)(C)C)C(=O)NCc1ccccc1 (stereo not given in full) is 0.48

For reference, reported log10(MIC) for CC[C@H](C)[C@H](NC(=O)[C@H](Cc1ccccc1)C[C@H](O)[C@H](Cc1ccccc1)NC(=O)OC(C)(C)C)C(=O)NCc1nc2ccccc2[nH]1 stands at -0.70

For reference, reported log10(MIC) for CCC(C)C(NC(=O)[C@H](Cc1ccccc1)C[C@H](O)[C@H](Cc1ccccc1)NC(=O)OC(C)(C)C)C(=O)NCC(O)CO (stereo not given in full) stands at 0.18

log10(MIC) for CCC(C)C(NC(=O)[C@H](Cc1ccccc1)C[C@H](O)[C@H](Cc1ccccc1)NC(=O)OC(C)(C)C)C(=O)NCc1ccccc1 (stereo not given in full) is 0.18

Lab book: log10(MIC) of CC(C)C[C@H](NC(=O)[C@H](C/C=C/c1ccccc1)C[C@H](O)[C@H](Cc1ccccc1)NC(=O)OC(C)(C)C)C(=O)N[C@@H](Cc1ccccc1)C(N)=O noted as 0.78

So for CC[C@H](C)[C@H](NC(=O)[C@H](C/C=C/c1ccccc1)C[C@H](O)[C@H](Cc1ccccc1)NC(=O)OC(C)(C)C)C(=O)NCc1nc2ccccc2[nH]1 , the logged log10(MIC) turned out to be -1.92

###

# measured.on: Human immunodeficiency virus type 1 protease (Human immunodeficiency virus 1)
# method.notes: Inhibition of HIV-1 protease
Field 'label' (enum: criterion met / criterion not met). Set to criterion met when IC50 is strictly under 1 nM; else criterion not met.

Hello, is IC50 of the following compound strictly smaller than 1 nM? CC(C)C[C@H](NC(=O)[C@H](C/C=C/c1ccccc1)C[C@H](O)[C@H](Cc1ccccc1)NC(=O)OC(C)(C)C)C(=O)N[C@@H](Cc1ccccc1)C(N)=O
criterion met

Is the reported IC50 for CCC(C)C(NC(=O)[C@H](Cc1ccccc1)C[C@H](O)[C@H](Cc1ccccc1)NC(=O)OC(C)(C)C)C(=O)NCc1ccccc1 (some centres undefined) strictly below 1 nM?
criterion met

Would you kindly verify if IC50 of CC(C)CC(NC(=O)[C@H](Cc1ccccc1)C[C@H](O)[C@H](Cc1ccccc1)NC(=O)OC(C)(C)C)C(=O)NCc1ccccc1 (some centres undefined) is strictly less than 1 nM?
criterion not met

is_below(IC50, 1 nM) for CC[C@H](C)[C@H](NC(=O)[C@H](C/C=C/c1ccccc1)C[C@H](O)[C@H](Cc1ccccc1)NC(=O)OC(C)(C)C)C(=O)NCc1nc2ccccc2[nH]1 ?
criterion met

Please state whether IC50 is below 1 nM for CC(C)C[C@H](NC(=O)[C@H](Cc1ccccc1)C[C@H](O)[C@H](Cc1ccccc1)NC(=O)[C@H](Cc1ccccc1)NC(=O)OC(C)(C)C)C(=O)N[C@@H](Cc1ccccc1)C(N)=O
criterion not met

Criterion: IC50 strictly below 1 nM. Is it met by CC(C)CC(NC(=O)[C@H](Cc1ccccc1)C[C@H](O)[C@H](Cc1ccccc1)NC(=O)OC(C)(C)C)C(N)=O (some centres undefined) ?
criterion not met

Bench note: check whether CC(C)C[C@H](NC(=O)[C@H](Cc1ccccc1)C[C@H](O)[C@H](Cc1ccccc1)NC(=O)OC(C)(C)C)C(=O)N[C@@H](Cc1ccccc1)C(N)=O shows IC50 below 1 nM
criterion met

Decide: IC50 of CCC(C)C(NC(=O)[C@H](Cc1ccccc1)C[C@H](O)[C@H](Cc1ccccc1)NC(=O)OC(C)(C)C)C(=O)NCC(O)CO (some centres undefined) strictly below 1 nM?
criterion met

Hi there! Is IC50 for CC[C@H](C)[C@H](NC(=O)[C@H](Cc1ccccc1)C[C@H](O)[C@H](Cc1ccccc1)NC(=O)OC(C)(C)C)C(=O)NCc1nc2ccccc2[nH]1 below 1 nM, do you know?
criterion met

Answer whether the compound CC(C)C[C@H](NC(=O)[C@H](Cc1ccccc1)C[C@H](O)[C@H](Cc1ccccc1)NC(=O)CC(C)(C)C)C(=O)N[C@@H](Cc1ccccc1)C(N)=O has IC50 strictly less than 1 nM
criterion not met

Given the entry CC(C)CC(NC(=O)[C@H](Cc1ccccc1)C[C@H](O)[C@H](Cc1ccccc1)NC(=O)OC(C)(C)C)C(=O)NCCc1ccccc1 (some centres undefined) , would its reported IC50 be below 1 nM?
criterion not met

Would you kindly verify if IC50 of CC(C)(C)OC(=O)N[C@@H](Cc1ccccc1)[C@@H](O)C[C@@H](Cc1ccccc1)C(=O)NCc1ccccc1 is strictly less than 1 nM?
criterion not met

I wonder whether CC(C)CCNC(=O)[C@H](Cc1ccccc1)C[C@H](O)[C@H](Cc1ccccc1)NC(=O)OC(C)(C)C has IC50 below 1 nM. Can you tell?
criterion not met
